System: OVCAR-3 ovarian
Experiment: NCI-60 one-dose screen, 48 h (100 = growth as untreated, 0 = no growth, -100 = all killed)
Conditions: 10 µM
Protocol: Growth inhibition of the OVCAR-3 human tumor cell line is measured as a screen for anti-cancer activity. Cells are grown in 96 well plates and exposed to the test compound for 48 hours. Compounds are tested at a single concentration, which is 10^-5 M for most compounds. The reported endpoint is percent growth (GI% or GIPRCNT), where numbers from 0 - 100% represent growth inhibition, and numbers from -100% - 0 represent cell death. For example, a value of 40 represents 60% growth inhibition. […]
Compounds without any hit were thinned out: in the full panel of roughly 83,000, 20% have a hit. Active and inactive are the calls of the source. How the source made its calls: active means growth percent below 10; inactive means the rest.
endpoint: growth

Solved entries:
molecule	growth
COc1ccc(-c2nn(-c3cccc(Cl)c3)cc2-c2c(C#N)c(=O)n3[nH]c(-c4ccccc4)nc3c2C#N)cc1	109% (inactive)
CS(=O)(=O)c1nccc(-c2c(-c3cccc(OCCc4ccccc4)c3)nc3sccn23)n1	104% (inactive)

[in] Missing value: growth, OVCAR-3 ovarian, entry CC(C)(C)c1ccc(S(=O)(=O)Oc2ccc(NC(=O)C3CCCCC3)cc2)cc1 . Fill in?
[out] 40.7% (inactive)

[in] Request - read-out growth | tested on OVCAR-3 ovarian | molecule CCN(CC)CC(=O)N(CC)c1ccc(C)c(Cl)c1
[out] 102% (inactive)

[in] Could you share what growth was measured for C(=N\Nc1ncnc2sc3c(c12)CCNC3)/c1cccc2ccccc12 , tested on OVCAR-3 ovarian?
[out] 113% (inactive)

[in] Enter reported growth observed with OVCAR-3 ovarian for CN(C)CCOc1ccccc1NC1=C(Cl)C(=O)C(Nc2ccccc2OCCN(C)C)=C(Cl)C1=O
[out] -96% (active)

====

Tested on: HT29 colon
Experiment: NCI-60 one-dose screen, 48 h (100 = growth as untreated, 0 = no growth, -100 = all killed)
Conditions: 10 µM
Compounds without any hit were thinned out: in the full panel of roughly 83,000, 20% have a hit. The source made the active and inactive calls. How the source made its calls: active means growth percent below 10; inactive means the rest.
Below: a set of entries, each annotated with reported growth.

Sample answers from the record:
molecule	growth
Cc1cc(CSc2ccccc2C(=O)N2CC=C(c3ccccc3)CC2)on1	84.2% (inactive)
CCCCN1C(=O)CC(SC2CC(=O)N(CCCC)C2=O)C1=O (configuration not stated)	76.1% (inactive)
Cc1ccccc1N1C(=O)c2cc(S(N)(=O)=O)c(Cl)cc2NC1C (configuration not stated)	101% (inactive)
CCOC(=O)c1cc(C(=O)c2cc(OC)c(OC)c(OC)c2)n2nc(C)ccc12	8.05% (active)
Nc1nc(N)c(N)c(Nc2ccc(CCO)cc2)n1	104% (inactive)

[in] What measured growth is associated with COc1ccc2c(c1)OC(N)=C(C#N)C2c1cc(OC)c(OC)c(OC)c1 (configuration not stated) on HT29 colon?
[out] 0.78% (active)

[in] Find the measured growth: item CCCCCCCCCCCCCCCCCC[n+]1ccc2c(C)c3c(c(C)c2c1)c1cc(O)ccc1n3CC , target or system HT29 colon.
[out] 17.2% (inactive)

====

Test system: CCRF-CEM leukemia
Assay: NCI-60 one-dose screen, 48 h
Details: 10 µM
About 83,000 compounds went through this panel and 20% of them were active in at least one assay; those are over-represented in the sample as a whole. The source made the active and inactive calls. The calls were made as follows: active = growth percent below 10; inactive = the rest.
// one of class 1 for active, class 0 for inactive, no free text

The following molecules have reported results that may help.
molecule	class_name
CS(=O)(=O)c1nccc(-c2c(-c3ccc(OCCc4ccccc4)cc3)nc3sccn23)n1	class 0
COc1ccc2nc(-c3ccc(Cl)cc3)cc(-c3nnc(SC/C(=N\O)c4ccccc4)n3-c3ccccc3)c2c1	class 0
CCCc1nc(C(C)(C)O)c(C(=O)O)n1Cc1ccc(-c2ccccc2-c2nn[nH]n2)cc1	class 0
CCOc1ccccc1/C=N\N=C\c1ccccc1O	class 0
COc1nc2c(c(=O)n1C)CN(c1ccccc1)C(=O)C(C)N2 (stereo unspecified)	class 0

[in] What did the test return for OCC1OC(n2cnc3c(NCc4ccco4)ncnc32)C(O)C1O (stereo unspecified) ?
[out] class 1

[in] What classification did C[C@]12CCC3c4ccc(O)cc4C[C@@H](CCCCCCCCCS(=O)CCCC(F)(F)C(F)(F)F)C3C1CC[C@@H]2O (stereo partly specified) end up with in this test?
[out] class 0

[in] Hi, sorry to bother you, what did the test record for Cc1ccc(C)c(COc2cc(NC(=O)c3ccc4c(c3)OCO4)ccc2N(C)S(C)(=O)=O)c1 ?
[out] class 0

[in] Recorded test call requested for OCC1OC(n2ccc3c(NO)ncnc32)C(O)C1O (stereo unspecified)
[out] class 1

[in] // outcome(item) with item = O=C1c2ccccc2C(=O)c2c1ccc(C(Br)Br)c2[N+](=O)[O-]
[out] class 1

[in] GET /call?item= c1ccc(CCCCc2ccc3ccccc3n2)cc1 returns the recorded outcome of this test.
[out] class 0

[in] Could you kindly confirm the outcome this assay logged for CC(C)N(CCOc1cccc(-c2nc3sccn3c2-c2ccnc(S(C)(=O)=O)n2)c1)C(C)C ?
[out] class 0

[in] GET /call?item= COC(=O)CC[C@@H](C)[C@H]1CC[C@H]2[C@@H]3CC[C@@H]4C[C@H](O)CC[C@]4(C)[C@H]3C[C@H](O)[C@]12C returns the recorded outcome of this test.
[out] class 0

[in] What outcome does the record of this test show for C/C(=C/CCC(C)[C@@H]1CC[C@]2(C)C3=C(CC[C@@]12C)[C@@]1(C)CCC(=O)C(C)(C)[C@@H]1CC3)C(=O)O (stereo partly specified) ?
[out] class 1

[in] Returns: the outcome recorded for O=C(O)COc1c(Cl)cc([N+](=O)[O-])cc1Cl in this assay.
[out] class 0

[in] Assay result, entry COc1ccccc1N1CCCSC1=Nc1ccccc1 — outcome?
[out] class 0

====

Test system: HCT-15 colon
Test: NCI-60 one-dose screen, 48 h
Conditions: 10 µM
Compounds without any hit were thinned out: in the full panel of roughly 83,000, 20% have a hit. Active and inactive are the calls of the source. Rule for the calls: active = growth percent below 10; inactive = the rest.
A correct response names exactly one class from active, inactive

Example entries begin here.
compound	assay_target	class_name
NS(=O)(=O)c1ccc(N2N=C(c3ccccc3)CCC2=O)cc1	HCT-15 colon	inactive
O=C(CCn1cnc2c(cc(-c3ccccc3)n2-c2ccccc2)c1=O)Nc1ccc(F)cc1	HCT-15 colon	inactive
CC(CN(C)C)Oc1ccc(OC(C)CN(C)C)c2c1C(=O)c1ccccc1C2=O (centres undefined)	HCT-15 colon	inactive
O=C1c2ccccc2C(=O)N1CCCCNc1ccccc1	HCT-15 colon	inactive
O=C(Nc1ccc(F)cc1)c1cc2ccccc2cc1O	HCT-15 colon	inactive
CCN(CC)CC(=O)N(CC)c1ccc(C)c(Cl)c1	HCT-15 colon	inactive
NS(=O)(=O)c1ccc(Br)cc1	HCT-15 colon	inactive
COc1ccc(-c2nn(-c3cccc(Cl)c3)cc2-c2cc(-c3cccs3)[nH]c(=S)n2)cc1	HCT-15 colon	inactive

[in] Name the outcome recorded for OCCn1cccn1 in the assay.
[out] inactive

[in] Called result for CC(C)(C)OC(=O)N1CCc2c(sc3ncnc(N/N=C/c4cccc(Br)c4)c23)C1
[out] inactive

[in] Name the outcome recorded for COc1cc(N)c2ncccc2c1SC in the assay.
[out] inactive

[in] Assay result, entry COc1ccc(C(=O)N/N=C/c2cc(C(F)(F)F)ccc2Cl)cc1 — outcome?
[out] inactive

[in] Please share the test call associated with CO[C@H]1CC(O[C@@H]2/C(C)=C/C[C@@H]3C[C@@H](C[C@]4(C=C[C@H](C)[C@@H](C5CCCCC5)O4)O3)OC(=O)[C@@H]3C=C(C)[C@@H](O)[C@H]4OC/C(=C\C=C\[C@@H]2C)[C@]43O)O[C@@H](C)C1O[C@H]1C[C@H](OC)[C@@H](O)[C@H](C)O1 (some centres undefined) .
[out] active

====

System: MDA-MB-435 melanoma
Experiment: NCI-60 one-dose screen, 48 h
Conditions: 10 µM
The panel holds about 83,000 compounds, 20% with a hit somewhere; the sample as a whole holds those more often. Active and inactive are the calls of the source. How the source made its calls: active means growth percent below 10; inactive means the rest.
Please reply with one of these outcomes: yes (1) for active, no (0) for inactive

# count of solved cases: 6
molecule	class_name
O=[N+]([O-])c1ccc2ncccc2c1Cl	yes (1)
COc1cc2ncnc(NC3CCC(O)CC3)c2cc1OC (stereo not drawn)	no (0)
COc1cc(C2C(C#N)=C(N)Oc3cc(O)ccc32)cc(OC)c1OC (stereo not drawn)	yes (1)
CCNCC(=O)Nc1ccc(C(=O)OCC)cc1	no (0)
O=C(CCCCC(=O)Oc1c(Cl)cc(Cl)cc1[N+](=O)[O-])Oc1c(Cl)cc(Cl)cc1[N+](=O)[O-]	no (0)
O=C1NC(=O)c2c(CCCSc3nc4ccccc4c(=O)n3CCc3ccccc3)cccc21	no (0)

[in] Tell me the recorded outcome of this test for CSc1nc2c(c(=O)n1C)CN(Cc1ccccc1)C(=O)CN2 .
[out] no (0)

[in] Outcome logged for Cc1c2c(nn1C(=O)c1nn(-c3ccc(Cl)cc3)cc1O)-c1ccccc1CC2 in this assay:
[out] no (0)
